- SYSTEM_NAME: SSTR1 (Homo sapiens (Human))
- Sequence (P30872 whole entry): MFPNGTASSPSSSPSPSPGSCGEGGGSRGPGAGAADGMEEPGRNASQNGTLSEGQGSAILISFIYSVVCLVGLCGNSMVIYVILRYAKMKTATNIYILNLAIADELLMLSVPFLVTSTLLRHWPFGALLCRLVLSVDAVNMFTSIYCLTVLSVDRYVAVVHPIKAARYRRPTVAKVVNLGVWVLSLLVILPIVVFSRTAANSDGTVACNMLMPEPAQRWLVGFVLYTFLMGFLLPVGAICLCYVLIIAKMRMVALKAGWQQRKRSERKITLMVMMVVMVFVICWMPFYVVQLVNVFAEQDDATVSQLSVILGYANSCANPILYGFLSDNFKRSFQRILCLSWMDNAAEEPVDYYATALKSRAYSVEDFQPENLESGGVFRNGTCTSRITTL
- PROTOCOL_NOTES: SSTR1 I-125 somatostatin competition binding assay for selectivity versus SSTR4 (membranes from CHO-K1 cells overexpressing SSTR1);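 note: Filter-based radioligand binding, bound label counted by scintillation after 60 min incubation at room temperature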
- ASSAY_CONDITIONS: competition with I-125 labeled somatostatin, CHO-K1 SSTR1 membranes
QUANTITY: SSTR1 Binding pIC50

molecule="Cc1cccnc1OCC(C)(C)C(=O)N[C@@H]1CN(C)C[C@H]1c1cnn(C)c1C (relative stereo)" quantity="SSTR1 Binding pIC50" reported_measurement=6.1
molecule="Cc1ccccc1[C@@H]1CNCC[C@H]1N(C)C(=O)C(C)(C)COc1ncccc1C(F)(F)F (relative stereo)" quantity="SSTR1 Binding pIC50" reported_measurement=5.4
molecule=C[C@H]1CNCC[C@@H]1NC(=O)C(C)(C)COc1ccccc1Cl quantity="SSTR1 Binding pIC50" reported_measurement=5.3
molecule=CC(C)(COc1ccccc1Cl)C(=O)N[C@H]1CCNC[C@@H]1F quantity="SSTR1 Binding pIC50" reported_measurement=4.8
molecule="Cc1c([C@@H]2CN(C)C[C@H]2NC(=O)C(C)(C)COc2ncccc2OC(F)(F)F)cnn1C (relative stereo)" quantity="SSTR1 Binding pIC50" reported_measurement=6.9
molecule=CN1C[C@H](NC(=O)C(C)(C)COc2ncccc2C(F)(F)F)C2(CC2)C1 quantity="SSTR1 Binding pIC50" reported_measurement=5.8
molecule="CN1CC[C@H](NC(=O)C(C)(C)COc2ncccc2OC(F)(F)F)[C@H](c2ccccc2)C1 (relative stereo)" quantity="SSTR1 Binding pIC50" reported_measurement=6.2
molecule=CN1CC[C@H](NC(=O)C(C)(C)COc2ncccc2C(F)(F)F)[C@@H](F)C1 quantity="SSTR1 Binding pIC50" reported_measurement=4.5
molecule=CC(C)(COc1ccccc1Cl)C(=O)NC1CCNCC1 quantity="SSTR1 Binding pIC50" reported_measurement=4.6
molecule=CN1CCC(NC(=O)C(C)(C)COc2ccccc2Cl)CC1 quantity="SSTR1 Binding pIC50" reported_measurement=4.9
molecule=CN1CC[C@@H](NC(=O)C(C)(C)COc2ncccc2C2CC2)C1 quantity="SSTR1 Binding pIC50" reported_measurement=4.6
molecule=C[C@H]1CN(C)CC[C@@H]1NC(=O)C(C)(C)COc1ccccc1F quantity="SSTR1 Binding pIC50" reported_measurement=5.0
molecule="Cc1cccnc1OCC(C)(C)C(=O)N[C@@H]1CN(C)C[C@H]1c1cnn(C)c1 (relative stereo)" quantity="SSTR1 Binding pIC50" reported_measurement=5.1
molecule="C[C@@H]1CN(C)C[C@H]1NC(=O)C(C)(C)COc1ncccc1OC(F)(F)F (relative stereo)" quantity="SSTR1 Binding pIC50" reported_measurement=5.4
